- Tgt: Ga14-DBD-PPAR gamma-LBD fusion protein (Homo sapiens)
- Construct: expressed in transfected cells; host or cells: mouse embryonic fibroblasts (MEFs) or ME3 cells
- Assay Remarks: PPAR gamma transactivation assay (Gal4-PPAR gamma LBD / UASx4-TK-luc reporter)
- Type: cell-based
- Condition Info: 10 microM racemate, Table 3
Consider the following molecules; for each one, report its PPAR Activation as % of positive control (Avandia).

Look up PPAR Activation as % of positive control (Avandia) for this molecule: CCCCC/C=C\CC1CC1/C=C/C(O)C/C=C\CCCC(=O)OC (stereo not shown) [PBT-2, reference compound]
27 +/− 5 % of positive control (Avandia)

// PPAR Activation as % of positive control (Avandia) lookup, key: CCCCC/C=C\CC1CC1/C=C/C(O)C/C=C\CCCC(=O)O (stereo not shown) [PBT-02, reference compound]
17 +/− 2 % of positive control (Avandia)

Report PPAR Activation as % of positive control (Avandia) for CCCCC/C=C\CC1CC1C(O)/C=C\C/C=C\CCCC(=O)OC (stereo not shown) [PBT-4, reference compound] please.
19 +/− 1 % of positive control (Avandia)

Which PPAR Activation as % of positive control (Avandia) value is on record for CCCCC/C=C\CC1CC1C(O)/C=C\C/C=C\CCCC(=O)OC (stereo not shown) [PBT-3, reference compound] ?
18 +/− 1 % of positive control (Avandia)

Returns the measured PPAR Activation as % of positive control (Avandia) for the input molecule. Input: CCCCC/C=C\CC1CC1/C=C/C(O)C/C=C\CCCC(=O)O (stereo not shown) [PBT-01, reference compound]
16 +/− 4 % of positive control (Avandia)

Requested read-out: PPAR Activation as % of positive control (Avandia). Entry: CCCCC/C=C\CC1CC1C(O)/C=C\C/C=C\CCCC(=O)O (stereo not shown) [PBT-03, reference compound]
14 +/− 4 % of positive control (Avandia)

I have this molecule here, CCCCC/C=C\CC1CC1/C=C/C(O)C/C=C\CCCC(=O)OC (stereo not shown) [PBT-1, reference compound] , and I need its recorded PPAR Activation as % of positive control (Avandia).
21 +/− 2 % of positive control (Avandia)

---

- Tgt: Ga14-DBD-PPAR gamma-LBD fusion protein (Homo sapiens)
- Construct: expressed in transfected cells; host or cells: mouse embryonic fibroblasts (MEFs) or ME3 cells
- Assay Remarks: PPAR gamma transactivation assay (Gal4-PPAR gamma LBD / UASx4-TK-luc reporter)
- Assay type: cell-based
- Condition Info: Experiment 1, 0.1 microM
Quantity Name: PPAR Activation as % of positive control (Avandia)

Form: Entry = CCCCC/C=C\C[C@H]1C[C@@H]1[C@H](O)/C=C\C/C=C\CCCC(=O)OC [Compound A] | System = Ga14-DBD-PPAR gamma-LBD fusion protein (Homo sapiens) | PPAR Activation as % of positive control (Avandia) = ____
11 +/− 4 % of positive control (Avandia)

What PPAR Activation as % of positive control (Avandia) appears in the records for this compound with Ga14-DBD-PPAR gamma-LBD fusion protein (Homo sapiens)? CCCCC/C=C\C[C@@H]1C[C@H]1/C=C/[C@@H](O)C/C=C\CCCC(=O)OC [Compound F]
7 +/− 1 % of positive control (Avandia)

For Ga14-DBD-PPAR gamma-LBD fusion protein (Homo sapiens), provide PPAR Activation as % of positive control (Avandia) of CCCCC/C=C\CC1CC1/C=C/C(O)C/C=C\CCCC(=O)OC (stereo not drawn) [PBT-1, reference compound] please.
17 +/− 2 % of positive control (Avandia)

Find PPAR Activation as % of positive control (Avandia) (Ga14-DBD-PPAR gamma-LBD fusion protein (Homo sapiens)) for the entry CCCCC/C=C\CC1CC1C(O)/C=C\C/C=C\CCCC(=O)OC (stereo not drawn) [Compound D]
14 +/− 3 % of positive control (Avandia)

Kindly state the measured PPAR Activation as % of positive control (Avandia) obtained for CCCCC/C=C\CC1CC1C(O)/C=C\C/C=C\CCCC(=O)OC (stereo not drawn) [Compound B] with Ga14-DBD-PPAR gamma-LBD fusion protein (Homo sapiens).
11 +/− 3 % of positive control (Avandia)

Please state recorded PPAR Activation as % of positive control (Avandia) (tested on Ga14-DBD-PPAR gamma-LBD fusion protein (Homo sapiens)) of CCCCC/C=C\CC1CC1/C=C/C(O)C/C=C\CCCC(=O)OC (stereo not drawn) [Compound E]
5 +/− 1 % of positive control (Avandia)

Observed PPAR Activation as % of positive control (Avandia) on Ga14-DBD-PPAR gamma-LBD fusion protein (Homo sapiens) for CCCCC/C=C\CC1CC1C(O)/C=C\C/C=C\CCCC(=O)OC (stereo not drawn) [PBT-4, reference compound] , please.
13 +/− 2 % of positive control (Avandia)

Entry CCCCC/C=C\CC1CC1C(O)/C=C\C/C=C\CCCC(=O)OC (stereo not drawn) [PBT-3, reference compound] , system Ga14-DBD-PPAR gamma-LBD fusion protein (Homo sapiens): what PPAR Activation as % of positive control (Avandia) was measured?
11 +/− 2 % of positive control (Avandia)

Tell me reported PPAR Activation as % of positive control (Avandia) for CCCCC/C=C\CC1CC1C(O)/C=C\C/C=C\CCCC(=O)OC (stereo not drawn) [Compound C] , tested with Ga14-DBD-PPAR gamma-LBD fusion protein (Homo sapiens).
14 +/− 4 % of positive control (Avandia)

---

- Tgt: Ga14-DBD-PPAR gamma-LBD fusion protein (Homo sapiens)
- Construct: expressed in transfected cells; host or cells: mouse embryonic fibroblasts (MEFs) or ME3 cells
- Assay Remarks: PPAR gamma transactivation assay (Gal4-PPAR gamma LBD / UASx4-TK-luc reporter)
- Type: cell-based
Quantity Name: PPAR gamma transactivation, result in words

Some compounds with known PPAR gamma transactivation, result in words results, for comparison:
• CCCCC/C=C\CC1CC1C(O)/C=C\C/C=C\CCCC(=O)OC (centres unmarked) [Compound B] = no apparent difference
• CCCCC/C=C\C[C@H]1C[C@@H]1[C@H](O)/C=C\C/C=C\CCCC(=O)OC [Compound A] = no apparent difference
• CCCCC/C=C\CC1CC1C(O)/C=C\C/C=C\CCCC(=O)O (centres unmarked) [PBT-03, reference compound] = active
• CCCCC/C=C\CC1CC1/C=C/C(O)C/C=C\CCCC(=O)O (centres unmarked) [PBT-01, reference compound] = active

Proceeding to the next compound to report its PPAR gamma transactivation, result in words.
So what's the measured PPAR gamma transactivation, result in words for this one? CCCCC/C=C\CC1CC1/C=C/C(O)C/C=C\CCCC(=O)O (centres unmarked) [PBT-02, reference compound]
active

---

- Tgt: Ga14-DBD-PPAR gamma-LBD fusion protein (Homo sapiens)
- Construct: expressed in transfected cells; host or cells: mouse embryonic fibroblasts (MEFs) or ME3 cells
- Sequence (P37231 238-503 limits assumed): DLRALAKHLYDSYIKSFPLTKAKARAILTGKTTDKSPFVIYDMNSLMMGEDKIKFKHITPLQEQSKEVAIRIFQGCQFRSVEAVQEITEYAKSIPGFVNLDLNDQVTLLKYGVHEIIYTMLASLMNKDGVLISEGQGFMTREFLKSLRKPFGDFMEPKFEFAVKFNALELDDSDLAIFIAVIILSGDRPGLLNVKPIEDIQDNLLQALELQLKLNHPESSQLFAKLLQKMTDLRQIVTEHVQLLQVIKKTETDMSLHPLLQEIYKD
- Assay Remarks: PPAR gamma transactivation assay (Gal4-PPAR gamma LBD / UASx4-TK-luc reporter)
- Assay type: cell-based
- Condition Info: Experiment 2, 1 microM
Quantity Name: PPAR Activation as % of positive control (Avandia)

GET /values?readout=PPAR Activation as % of positive control (Avandia)&item= CCCCC/C=C\CC1CC1/C=C/C(O)C/C=C\CCCC(=O)OC (stereo not drawn) [PBT-1, reference compound]
35 +/− 5 % of positive control (Avandia)

Item under review: CCCCC/C=C\C[C@@H]1C[C@H]1/C=C/[C@@H](O)C/C=C\CCCC(=O)OC . Reported PPAR Activation as % of positive control (Avandia)?
5 +/− 5 % of positive control (Avandia)

For the compound CCCCC/C=C\CC1CC1C(O)/C=C\C/C=C\CCCC(=O)OC (stereo not drawn) [Compound B] , what PPAR Activation as % of positive control (Avandia) is on record?
10 +/− 1 % of positive control (Avandia)

Find the recorded PPAR Activation as % of positive control (Avandia) belonging to CCCCC/C=C\CC1CC1C(O)/C=C\C/C=C\CCCC(=O)OC (stereo not drawn) [PBT-4, reference compound] and report it.
7 +/− 1 % of positive control (Avandia)

Name the reported PPAR Activation as % of positive control (Avandia) value associated with the compound CCCCC/C=C\CC1CC1C(O)/C=C\C/C=C\CCCC(=O)OC (stereo not drawn) [Compound C]
6 +/− 1 % of positive control (Avandia)

Name the recorded PPAR Activation as % of positive control (Avandia) for CCCCC/C=C\CC1CC1C(O)/C=C\C/C=C\CCCC(=O)OC (stereo not drawn) [PBT-3, reference compound] .
8 +/− 1 % of positive control (Avandia)

If you can, please state the reported PPAR Activation as % of positive control (Avandia) value of CCCCC/C=C\CC1CC1C(O)/C=C\C/C=C\CCCC(=O)OC (stereo not drawn) [Compound D] .
5 +/− 1 % of positive control (Avandia)

What value of measured PPAR Activation as % of positive control (Avandia) is listed for CCCCC/C=C\CC1CC1/C=C/C(O)C/C=C\CCCC(=O)OC (stereo not drawn) [Compound E] ?
4 +/− 1 % of positive control (Avandia)

Item under review: CCCCC/C=C\C[C@H]1C[C@@H]1[C@H](O)/C=C\C/C=C\CCCC(=O)OC . Reported PPAR Activation as % of positive control (Avandia)?
11 +/− 1 % of positive control (Avandia)
